Source listed as PubChem BioAssay (NCI).

tested on: SK-MEL-2 melanoma; assay: NCI tumour cell line growth inhibition, 48 h
For each record, write down the corresponding TGI.

CN1C/C(=C\C=C\c2ccccc2)C(=O)/C(=C/C=C/c2ccccc2)C1 ... > 100 µM
N.N.O=P([O-])([O-])C1(P(=O)([O-])[O-])CCCCCN1.[Pt+2] ... > 100 µM
CC[C@H](C)C(=O)O[C@H]1C[C@H](O)C=C2C=C[C@H](C)[C@H](CC[C@@H](O)C[C@@H](O)CC(=O)O)[C@H]21 ... > 100 µM

Okay, here is my list. What is TGI for each of these?
1. Cn1cc(C2=C(N3CCOCC3)C(=O)NC2=O)c2ccccc21
2. COc1ccc(Sc2ccccc2N)cc1
3. NC(N)=NCCCC(NC(=O)OCCCCn1ccc(N)nc1=O)C(=O)O (stereo unspecified)

**Result**
1: > 25 µM; 2: > 100 µM; 3: > 100 µM

---

For each record, write down the corresponding TGI.
test system: NCI-H23 lung; assay: NCI tumour cell line growth inhibition, 48 h

Please review the entries below; each comes with its answer.
CC(=O)OC1COC(Nc2nc(N)n(C)c(=O)c2N=O)C(OC(C)=O)C1OC(C)=O (stereo not drawn) ... > 10 µM
COC(=O)c1c(O)ccc2c1c1c(n2Cc2ccccc2)C(=O)c2ccccc2C1 ... > 100 µM

**Query** Item CN1C/C(=C\C=C\c2ccccc2)C(=O)/C(=C/C=C/c2ccccc2)C1 : provide TGI
**Result** > 100 µM

---

system: HCT-116 colon; test: NCI tumour cell line growth inhibition, 48 h
For each record, write down the corresponding TGI.

COc1cc(NC(=O)C2=C(N3CCOCC3)/C(=C/c3ccc(Cl)cc3)CC2)cc(OC)c1OC ... > 100 µM

Okay, here is my list. What is TGI for each of these?
1. COc1ccc(Sc2ccccc2N)cc1
2. Cn1cc(C2=C(N3CCOCC3)C(=O)NC2=O)c2ccccc21

**Result**
1: > 100 µM; 2: > 25 µM

---

test system: HCC-2998 colon; assay: NCI tumour cell line growth inhibition, 48 h
result-type: TGI

Okay, here is my list. What is TGI for each of these?
1. Cc1ccc(Sc2cc3c(oc2=O)-c2ccccc2OC3O)cc1 (stereo unspecified)
2. COc1ccc(Nc2nc(N)c(C(=O)c3cccs3)s2)cc1

**Result**
36.6 µM
8.85 µM

Okay, here is my list. What is TGI for each of these?
1. CC(=C/c1ccccc1)/C=C1/NC(=S)N(/C=C2\C(=O)Oc3ccccc3C2=O)C1=O
2. CCOc1ccc2c(c1)c(=O)c1c(NCCN(CC)CC)ccc3nnn2c31

**Result**
> 100 µM
> 50.4 µM

---

tested on: SR leukemia; assay: NCI tumour cell line growth inhibition, 48 h
Answer Not satisfied if TGI is under 30 µM, and Satisfied if it is 30 µM or more.

**Query** Decide: TGI of CCCCCCCCCCCCCC(=O)N(CCCCCCCCC)CC(O)C(O)C(OC1OC(CO)C(O)C(O)C1O)C(O)CO (configuration not stated) >= 30 µM?
**Result** Satisfied

**Query** Decide: TGI of Cc1ccc([C@]2(C)CC[C@H](C)/C2=C\Br)c(O)c1 >= 30 µM?
**Result** Not satisfied

**Query** Decide: TGI of Cc1c([N+](=O)[O-])oc2ccc3ccccc3c12 >= 30 µM?
**Result** Satisfied

**Query** Decide: TGI of CCN(c1cc(C#CCN2CCOCC2)cc(C(=O)NCc2c(C)cc(C)[nH]c2=O)c1C)C1CCC(N(C)CCOC)CC1 (configuration not stated) >= 30 µM?
**Result** Satisfied

**Query** Decide: TGI of CC1(C)CCc2c(c(N=Nc3ccc(F)cc3)c3ccccc3c2O)O1 >= 30 µM?
**Result** Satisfied

**Query** Decide: TGI of CCN(CC)C(=S)[S][Bi]([S]C(=S)N(CC)CC)[S]C(=S)N(CC)CC >= 30 µM?
**Result** Not satisfied

**Query** Decide: TGI of COc1ccc(Nc2nc(N)c(C(=O)c3cccs3)s2)cc1 >= 30 µM?
**Result** Not satisfied

**Query** Decide: TGI of Cc1cccc2c(O)cc(=O)oc12 >= 30 µM?
**Result** Satisfied

**Query** Decide: TGI of NNC(=O)C(=O)N/N=C(\CCC(=O)Nc1ccc(Cl)cc1)Cc1nc2ccccc2s1 >= 30 µM?
**Result** Satisfied

**Query** Decide: TGI of COc1cccc2c1n([O-])c1cccc(OC)c1[n+]2=O >= 30 µM?
**Result** Not satisfied

**Query** Decide: TGI of COc1ccc2ccc3oc([N+](=O)[O-])cc3c2c1 >= 30 µM?
**Result** Not satisfied

**Query** Decide: TGI of CCOC(=O)c1c(-c2cccc3ccccc23)c(C#N)c(=S)n(C2OC(COC(C)=O)C(OC(C)=O)C(OC(C)=O)C2OC(C)=O)c1C (configuration not stated) >= 30 µM?
**Result** Satisfied

**Query** Decide: TGI of CCN1CCC(O)(/C=C/c2ccc(OC)cc2)C(C(=O)/C=C/c2ccc(OC)cc2)C1 (configuration not stated) >= 30 µM?
**Result** Not satisfied

**Query** Decide: TGI of O=Nc1c(-c2c(O)[nH]c3ccc(Br)cc23)[nH]c2ccccc12 >= 30 µM?
**Result** Not satisfied

**Query** Decide: TGI of COC(=O)c1c(O)ccc2c1c1c(n2Cc2ccccc2)C(=O)c2ccccc2C1 >= 30 µM?
**Result** Satisfied

**Query** Decide: TGI of O=C(CCCCC(=O)N/N=C\c1ccccc1O)N/N=C\c1ccccc1O >= 30 µM?
**Result** Satisfied

**Query** Decide: TGI of Oc1c(CN2CCN(c3ccccc3)CC2)cc(Br)c2cccnc12 >= 30 µM?
**Result** Not satisfied

---

test system: SK-OV-3 ovarian; assay: NCI tumour cell line growth inhibition, 48 h
result-type: TGI (µM)
Answers are plain numbers, in µM.

CCC(NC1=NCCO1)c1cccs1 (stereo not given) ... 27.3

**Query** Item OC(CC(O)(C(F)(F)F)C(F)(F)F)c1ccc(C(O)CC(O)(C(F)(F)F)C(F)(F)F)cc1 (stereo not given) : provide TGI
**Result** 31.9

---

For each record, write down the corresponding TGI.
tested on: LOX IMVI melanoma; assay: NCI tumour cell line growth inhibition, 48 h

COC(=O)c1nn(C(=N)c2ccc(Cl)cc2)c2c1CCC2 ... > 100 µM
Oc1cc(Br)cc2cc(Cl)cnc12 ... > 26.5 µM
CC(=O)/C(=C/N1CCNC1=S)C(=O)Nc1ccccc1C ... > 100 µM

**Query** Look up LOX IMVI melanoma data: TGI of COc1ccc(Sc2ccccc2N)cc1 , then report it.
**Result** > 100 µM

---

system: U251 CNS; test: NCI tumour cell line growth inhibition, 48 h
result-type: TGI

Please review the entries below; each comes with its answer.
O=c1ccc2ccc(O)cc2o1 ... > 100 µM
Cc1ccc([N+](=O)[O-])c2c(NCC(O)CO)ccnc12 (configuration not stated) ... > 100 µM
Oc1cc(Br)cc2cc(Cl)cnc12 ... > 82.8 µM

Okay, here is my list. What is TGI for each of these?
1. Cc1ccc(-n2cc([Si](C)(C)C)nn2)s1
2. Cc1cccc2c(O)cc(=O)oc12
3. CC1=NN(c2nc(N)nc(/C=C\c3ccc([N+](=O)[O-])s3)n2)C(C)(C)C1
4. CC1=C(C)C(=O)C(C2=CC(=O)C=CC2=O)=C(C2=CC(=O)C=CC2=O)C1=O

**Result**
1: > 100 µM; 2: > 100 µM; 3: > 100 µM; 4: > 77.5 µM

---

system: SN12C renal; test: NCI tumour cell line growth inhibition, 48 h; in the data active means GI50 below about 0.43 µM; inactive means the rest
Mark one answer only. Choices: active, inactive

CC(=O)c1cc(O)c2ccccc2c1O ... inactive
O=C1OCC2=C1C(c1ccccc1)c1cc3c(cc1N2CCO)OCCO3 (stereo unspecified) ... inactive
O=C(NC(=S)Nc1cc(Cl)ccc1O)c1cccc(Br)c1 ... inactive
CC[C@H](C)C(=O)O[C@H]1C[C@H](O)C=C2C=C[C@H](C)[C@H](CC[C@@H](O)C[C@@H](O)CC(=O)O)[C@H]21 ... inactive
Nc1c(C(=O)Nc2cccc(Cl)c2Cl)sc2nc3c(cc12)C(=O)CCC3 ... inactive

Let's switch to this compound now.
**Query** Query: recorded result category for CNCCN=c1ccc2c3c1c(O)c1c(O)ccc(=O)c1c3[nH]n2CCNCCO in this test
**Result** active

---

tested on: HS 578T breast; assay: NCI tumour cell line growth inhibition, 48 h
result-type: TGI

Cc1ccc(-n2cc([Si](C)(C)C)nn2)s1 ... > 100 µM
CCOC(=O)N1CCC(=C2c3ccc(Cl)cc3CCc3cccnc32)CC1 ... > 100 µM
C=CC(C)(C)C(=C)C(=O)Nc1ccccc1I ... > 100 µM
Cn1cc(C2=C(N3CCOCC3)C(=O)NC2=O)c2ccccc21 ... > 25 µM
CCCCCCCCCCCCCCCCCC(=O)Nc1ccn(C2OC(CO)C(O)C2O)c(=O)n1 (stereo unspecified) ... > 100 µM

# input for lookup
**Query** Item O=C(CCc1ccc(O)cc1)N/N=C/c1cc(Br)ccc1O : provide TGI
**Result** > 100 µM
